assay_comment: Clearance in Athymic nu-nu mouse at 10 mg/kg, iv measured upto 24 hrs by LC-MS/MS analysis
Type: ADME, organism-based
run_parameters: in vivo

{"chem_smiles": "CCc1cccc(CC)c1NC(=O)c1nn(C)c2c1CCc1cnc(Nc3ccc(C(=O)NC4CCN(C)CC4)cc3OC(F)(F)F)nc1-2", "clearance / mL/min/kg": 10}

----------
assay_system: Serine/threonine-protein kinase PLK2 (Homo sapiens, UniProt Q9NYY3)
Sequence (Q9NYY3 whole entry): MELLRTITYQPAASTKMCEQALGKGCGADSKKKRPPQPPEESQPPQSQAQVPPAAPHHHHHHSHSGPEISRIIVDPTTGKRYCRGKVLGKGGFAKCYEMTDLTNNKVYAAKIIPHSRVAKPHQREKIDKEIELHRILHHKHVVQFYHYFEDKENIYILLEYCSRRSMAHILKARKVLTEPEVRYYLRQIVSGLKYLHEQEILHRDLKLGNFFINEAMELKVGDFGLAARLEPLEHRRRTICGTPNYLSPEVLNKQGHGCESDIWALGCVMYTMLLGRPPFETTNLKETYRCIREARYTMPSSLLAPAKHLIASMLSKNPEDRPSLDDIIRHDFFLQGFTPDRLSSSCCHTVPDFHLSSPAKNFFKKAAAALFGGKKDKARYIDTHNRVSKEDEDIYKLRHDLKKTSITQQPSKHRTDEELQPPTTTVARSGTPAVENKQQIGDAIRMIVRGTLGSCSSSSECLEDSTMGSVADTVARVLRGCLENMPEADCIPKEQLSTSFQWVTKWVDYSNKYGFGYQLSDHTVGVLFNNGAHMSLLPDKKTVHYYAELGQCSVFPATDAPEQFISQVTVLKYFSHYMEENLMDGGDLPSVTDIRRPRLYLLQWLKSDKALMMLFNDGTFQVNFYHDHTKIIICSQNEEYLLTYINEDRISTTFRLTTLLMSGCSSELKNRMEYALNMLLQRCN
assay_comment: Inhibition of recombinant PLK2 (unknown origin)

{"chem_smiles": "CCc1cccc(CC)c1NC(=O)c1nn(C)c2c1CCc1cnc(Nc3ccc(C(=O)NC4CCN(C)CC4)cc3OC(F)(F)F)nc1-2", "IC50": "> 10 µM"}

----------
assay_system: Cyclin-dependent kinase 1/cyclin B1 (Homo sapiens)
Sequence (P06493 whole entry): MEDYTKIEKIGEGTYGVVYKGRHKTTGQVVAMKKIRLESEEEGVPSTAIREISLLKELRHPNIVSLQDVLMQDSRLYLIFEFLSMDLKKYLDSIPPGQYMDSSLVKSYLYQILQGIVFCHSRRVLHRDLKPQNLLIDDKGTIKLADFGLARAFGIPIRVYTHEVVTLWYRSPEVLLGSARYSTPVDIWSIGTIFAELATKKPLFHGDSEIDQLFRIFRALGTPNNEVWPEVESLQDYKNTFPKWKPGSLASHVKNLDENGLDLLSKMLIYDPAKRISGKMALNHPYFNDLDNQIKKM
Sequence (P14635 whole entry, further chain): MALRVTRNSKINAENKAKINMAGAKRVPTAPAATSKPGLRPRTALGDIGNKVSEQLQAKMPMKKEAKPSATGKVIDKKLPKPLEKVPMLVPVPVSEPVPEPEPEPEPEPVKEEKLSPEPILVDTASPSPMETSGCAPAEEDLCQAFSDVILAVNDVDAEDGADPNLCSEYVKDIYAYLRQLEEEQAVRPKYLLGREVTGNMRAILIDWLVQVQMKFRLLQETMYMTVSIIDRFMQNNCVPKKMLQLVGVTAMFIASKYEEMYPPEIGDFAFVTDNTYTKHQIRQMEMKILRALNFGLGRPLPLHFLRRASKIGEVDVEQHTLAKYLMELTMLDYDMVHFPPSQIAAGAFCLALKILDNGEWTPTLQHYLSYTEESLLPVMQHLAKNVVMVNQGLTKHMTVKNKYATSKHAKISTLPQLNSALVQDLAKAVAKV
assay_comment: Inhibition of recombinant CDK1/CYCB (unknown origin)
pIC50: −log10 of the molar value.
observable: pIC50

{"chem_smiles": "CCc1cccc(CC)c1NC(=O)c1nn(C)c2c1CCc1cnc(Nc3ccc(C(=O)NC4CCN(C)CC4)cc3OC(F)(F)F)nc1-2", "assay_system": "Cyclin-dependent kinase 1/cyclin B1 (Homo sapiens)", "observable": "pIC50", "experimental_value": "< 5.00"}

----------
System: LS180
assay_comment: Antiproliferative activity against human LS180 cells assessed as inhibition of cell growth incubated for 72 hrs by celltiter-glo assay
Assay type: functional, cell-based
run_parameters: LS180, 72 h
observable: IC50 (nM)

{"chem_smiles": "CCc1cccc(CC)c1NC(=O)c1nn(C)c2c1CCc1cnc(Nc3ccc(C(=O)NC4CCN(C)CC4)cc3OC(F)(F)F)nc1-2", "observable": "IC50", "result_unit": "nM", "experimental_value": 2170}

----------
System: SKM-1
assay_comment: Antiproliferative activity against human SKM-1 cells assessed as inhibition of cell growth incubated for 72 hrs by celltiter-glo assay
Type: functional, cell-based
run_parameters: SKM-1, 72 h
pIC50: −log10 of the molar value.

{"chem_smiles": "CCc1cccc(CC)c1NC(=O)c1nn(C)c2c1CCc1cnc(Nc3ccc(C(=O)NC4CCN(C)CC4)cc3OC(F)(F)F)nc1-2", "pIC50": 5.00}

----------
Test system: MV4-11
assay_comment: Antiproliferative activity against human MV4-11 cells assessed as inhibition of cell growth incubated for 72 hrs by celltiter-glo assay
Format: functional, cell-based
run_parameters: MV4-11, 72 h

{"chem_smiles": "CCc1cccc(CC)c1NC(=O)c1nn(C)c2c1CCc1cnc(Nc3ccc(C(=O)NC4CCN(C)CC4)cc3OC(F)(F)F)nc1-2", "IC50, nM": 1140}

----------
assay_system: Activated CDC42 kinase 1 (Homo sapiens, UniProt Q07912)
Sequence (Q07912 whole entry): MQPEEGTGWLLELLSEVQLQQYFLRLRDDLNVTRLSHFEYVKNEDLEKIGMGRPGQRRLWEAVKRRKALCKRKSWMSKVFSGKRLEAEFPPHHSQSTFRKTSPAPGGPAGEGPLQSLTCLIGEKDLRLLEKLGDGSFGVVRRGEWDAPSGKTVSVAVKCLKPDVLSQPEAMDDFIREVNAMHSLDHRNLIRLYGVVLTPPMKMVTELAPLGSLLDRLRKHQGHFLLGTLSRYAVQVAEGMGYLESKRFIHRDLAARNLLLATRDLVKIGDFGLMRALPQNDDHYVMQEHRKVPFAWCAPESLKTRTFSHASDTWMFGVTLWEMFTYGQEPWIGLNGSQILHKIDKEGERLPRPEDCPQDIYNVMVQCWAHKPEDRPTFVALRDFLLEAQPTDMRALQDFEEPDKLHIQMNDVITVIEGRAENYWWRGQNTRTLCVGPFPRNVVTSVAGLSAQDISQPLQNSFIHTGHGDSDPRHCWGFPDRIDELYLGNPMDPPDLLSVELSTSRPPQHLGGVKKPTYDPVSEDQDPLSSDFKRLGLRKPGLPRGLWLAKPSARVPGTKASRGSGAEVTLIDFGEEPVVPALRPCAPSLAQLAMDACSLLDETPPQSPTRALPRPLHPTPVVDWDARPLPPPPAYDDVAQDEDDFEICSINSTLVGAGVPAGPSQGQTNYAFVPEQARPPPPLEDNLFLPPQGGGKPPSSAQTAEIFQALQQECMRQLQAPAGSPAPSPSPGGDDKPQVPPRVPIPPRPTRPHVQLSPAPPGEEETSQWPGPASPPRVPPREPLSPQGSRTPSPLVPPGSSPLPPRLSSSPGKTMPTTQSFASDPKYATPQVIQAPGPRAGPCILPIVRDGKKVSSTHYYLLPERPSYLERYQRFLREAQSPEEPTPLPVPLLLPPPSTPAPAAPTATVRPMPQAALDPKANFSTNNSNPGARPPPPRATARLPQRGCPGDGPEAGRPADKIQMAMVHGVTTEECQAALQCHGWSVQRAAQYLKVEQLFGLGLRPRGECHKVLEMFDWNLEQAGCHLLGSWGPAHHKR
assay_comment: Inhibition of recombinant ACK1 (unknown origin)

{"chem_smiles": "CCc1cccc(CC)c1NC(=O)c1nn(C)c2c1CCc1cnc(Nc3ccc(C(=O)NC4CCN(C)CC4)cc3OC(F)(F)F)nc1-2", "censor_symbol": ">", "IC50, µM": 10}
{"chem_smiles": "O=C1c2ccccc2-c2n[nH]c3cccc1c23", "censor_symbol": "=", "IC50, µM": 2.29}

----------
assay_comment: Cmax in Athymic nu-nu mouse at 10 mg/kg, iv measured upto 24 hrs by LC-MS/MS analysis
Assay type: ADME, organism-based
run_parameters: in vivo

{"chem_smiles": "CCc1cccc(CC)c1NC(=O)c1nn(C)c2c1CCc1cnc(Nc3ccc(C(=O)NC4CCN(C)CC4)cc3OC(F)(F)F)nc1-2", "Cmax / µM": 4.79}
